// provenance: PubChem BioAssay (NCI)

- Tested on: MCF7 breast
- test: NCI tumour cell line growth inhibition, 48 h
assay.readout: TGI

Solved cases below.
>  <compound>
COc1ccc(C2=NNC(c3sc(Cl)nc3Cl)C2)cc1 (stereo not drawn)

>  <assay.readout>
TGI

>  <val>
16.4 µM

$$$$
>  <compound>
CNCC(SC)c1ccc(O)c(O)c1 (stereo not drawn)

>  <assay.readout>
TGI

>  <val>
87.4 µM

$$$$
>  <compound>
Cc1cc(NS(=O)(=O)c2ccc(Nc3c4ccccc4nc4c(C(=O)NC(CO)(CO)CO)cccc34)cc2)no1

>  <assay.readout>
TGI

>  <val>
> 100 µM

$$$$
>  <compound>
CC(C)(C)OC(=O)NCC(c1c[nH]c2ccccc12)c1c[nH]c2ccccc12

>  <assay.readout>
TGI

>  <val>
> 100 µM

$$$$
>  <compound>
COC(=O)[C@@H]1C=CCN1S(=O)(=O)c1ccc(C)cc1

>  <assay.readout>
TGI

>  <val>
> 100 µM

$$$$
>  <compound>
CSCc1ncc(-c2ccc(C(F)(F)F)cc2)c(NC2CCCCCC2)n1

>  <assay.readout>
TGI

>  <val>
> 10 µM

$$$$

Batch request: TGI for each of the following compounds.
1. O=C1c2ccccc2-c2c1c1ccccc1c(=O)n2CCNCCNCCNCCNCCn1c2c(c3ccccc3c1=O)C(=O)c1ccccc1-2
2. O=C(O)c1c(CC(Cc2ccccc2)C(=O)O)ccc2c1CCC2 (stereo not drawn)

Marked response:
1. 1.71 µM
2. > 100 µM

----------
Field: TGI. Provide a value for each of the compounds that follow.
- Test system: UO-31 renal
- test: NCI tumour cell line growth inhibition, 48 h

>  <compound>
CCSc1c2ccccc2nc2c(OC)ccc(OC)c12

>  <tested.system>
UO-31 renal

>  <TGI>
59.8 µM

$$$$
>  <compound>
NCCCNCCSP(=O)(O)O

>  <tested.system>
UO-31 renal

>  <TGI>
> 750 µM

$$$$
>  <compound>
C=C(CN1CCc2ccccc2C1)c1ccc(CCCC(=O)Nc2ccccc2N)cc1

>  <tested.system>
UO-31 renal

>  <TGI>
17.7 µM

$$$$
>  <compound>
N.N.N.N.O=S([O-])[O-].[Co+3].[N-]=[N+]=[N-]

>  <tested.system>
UO-31 renal

>  <TGI>
> 100 µM

$$$$
>  <compound>
C=CCCCN(C(=O)c1ccccc1)c1ccc(C(=O)OC)o1

>  <tested.system>
UO-31 renal

>  <TGI>
> 100 µM

$$$$

Batch request: TGI for each of the following compounds.
1. CCOC1=C/C(=N\Nc2ccc([N+](=O)[O-])cc2)CCC1
2. CC(C)(C)OC(=O)NCCCCCCCCCCCCn1c2c(c3ccccc3c1=O)C(=O)c1ccccc1-2
3. COc1ccc(-c2csc3c2[N+]2(C)C=CC=C2C3N2CCCC2)cc1 (centres undefined)
4. C/C(N=NS(=O)(=O)c1c(C)cc(C)cc1C)=C1\C=CC=CN1O
5. Cn1cnnc1Sc1c([N+](=O)[O-])nc(-c2ccc([N+](=O)[O-])cc2)n1C
6. CC1=NN(c2ccccc2)C(=O)/C1=C\c1c(C)[nH]n(-c2ccccc2)c1=O

Marked response:
35.1 µM
> 100 µM
> 100 µM
> 100 µM
28 µM
> 100 µM

Batch request: TGI for each of the following compounds.
1. Cc1cc(C)c(-c2c(O)c(Br)c(-c3c(C)cc(C)c(Br)c3C)c(O)c2Br)c(C)c1Br
2. COc1ccc(Cn2c(=O)c(OS(=O)(=O)C(F)(F)F)c(C)c3cc4ccccc4cc32)cc1
3. COc1ccccc1/C=C(\NC(=O)c1ccccc1)c1nc2ccccc2[nH]1

Marked response:
["8.22 µM", "> 100 µM", "> 100 µM"]
